- Test system: PXR:RXRa (NR concentration 270 nM, RXRa partner concentration 90 nM)
- testDescription: PBM binding z-score (relative to random genomic background probes); higher = stronger binding; sequences stand for … in GC…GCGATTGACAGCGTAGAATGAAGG
Recorded PBM binding z-score, one value per entry.
Write no unit; give the number alone.

Solved entries (count: 2):
# sequenceString, PBM binding z-score
records = [
    ("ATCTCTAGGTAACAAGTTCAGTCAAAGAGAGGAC", 1.77),
    ("ATACCAAGGTGATCGTGAGGTCGATGATACTAAC", 1.91),
]

Recorded PBM binding z-score for `ACTCGGAGGACGAAGGTCAGAGCTACGCCAGTGA` , please?
1.4

Also `TCATATAGGTAATACAGGTTAAAGTCGGCATCTA` ?
1.32

Also `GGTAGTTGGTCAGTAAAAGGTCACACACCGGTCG` ?
4.95

Also `CCTACTGGGCCACGAAAGTTCATTGATTCAGTGA` ?
4.97

Also `TCTGCTAGTTCAACGATGGTCAGCTAATCTGCTA` ?
0.51

Also `CCTATTAGTTGACCAAAAGGGCAACCGAAGCTCG` ?
1.09

Also `TAGCCTAGGTCAGATCGGGACAGTATACGCTATA` ?
1.74

Also `CTTCCAAGGTCAAAGGTCAGTGAAGAGATGACGG` ?
7.21

Also `CGTCCAAGGTCATAGGAGGCCAGTGAAGACAGAT` ?
5.33

Also `AGAACGAGGTTACCAAAGATCAGGGAAACGCTTG` ?
1.41

Also `ACTAGCAGGCAAAGGGTCACTCAAGATTAGTCCG` ?
3.4

Also `CGTCCAAGGTCAAAGGTCAGTGATGAGATGACGG` ?
6.83

Also `AATACAGGGTCACCGTAGGCCAGAGTACGCACAG` ?
4.97

###

- Test system: VDR:RXRa (NR concentration 270 nM, RXRa partner concentration 90 nM)
- testDescription: PBM binding z-score (relative to random genomic background probes); higher = stronger binding; sequences stand for … in GC…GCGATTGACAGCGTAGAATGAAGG
measurementKind: PBM binding z-score

Solved entries (count: 2):
# sequenceString, targetOrSystem, resultValue
data = [
    ("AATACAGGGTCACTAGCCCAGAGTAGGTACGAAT", "VDR:RXRa (NR concentration 270 nM, RXRa partner concentration 90 nM)", 4),
    ("CCTACTGGGCCAAAAAGGACATTGATGCCGATAA", "VDR:RXRa (NR concentration 270 nM, RXRa partner concentration 90 nM)", 0.106),
]

// switching to the query sequence
Recorded PBM binding z-score for `TCATATAGGTAATGGTGAAAGTCGAACGATATGA` , please?
0.243

###

Recorded PBM binding z-score, one value per entry.
- Tested on: PPARg:RXRa 270nM:90nM, anti-RXR (NR concentration 270 nM, RXRa partner concentration 90 nM)
- testDescription: PBM binding z-score (relative to random genomic background probes); higher = stronger binding; sequences stand for … in GC…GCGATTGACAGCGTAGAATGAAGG
Write no unit; give the number alone.

Solved entries (count: 3):
# sequenceString, PBM binding z-score
records = [
    ("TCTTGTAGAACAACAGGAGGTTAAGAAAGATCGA", 1.56),
    ("CTAGACAGGTGAAAGGTAACTCAGTCTGGTACGC", 6.66),
    ("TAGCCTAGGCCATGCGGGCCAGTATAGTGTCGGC", -1.06),
]

// switching to the query sequence
Recorded PBM binding z-score for `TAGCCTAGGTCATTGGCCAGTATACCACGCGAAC` , please?
2.49

Cited source: the supplement of paper PMC6555819
